- System: Shigella sp.
- assay-procedure: Antibacterial activity against Shigella sp. after 48 hrs by agar well diffusion method
- Format: functional
measured-parameter: MIC (µg/mL)
Expressed in µg/mL, but write only the number.

Entry [Br-].[Br-].c1cc2cc(c1)C[n+]1cn(c3ccccc31)Cc1cc3ccccc3nc1Oc1ccc3ccccc3c1-c1c(ccc3ccccc13)Oc1nc3ccccc3cc1Cn1c[n+](c3ccccc31)C2 needs its MIC filled in; supply it. 10

Please report the measured MIC for [Br-].[Br-].c1cc2cc(c1)C[n+]1cn(c3ccccc31)Cc1cc3ccccc3nc1Oc1ccccc1Oc1nc3ccccc3cc1Cn1c[n+](c3ccccc31)C2 55

Hello, please tell me recorded MIC for this one: [Br-].[Br-].c1cc2nc(c1)C[n+]1ccn(c1)Cc1cc3ccccc3nc1Oc1ccc3ccccc3c1-c1c(ccc3ccccc13)Oc1nc3ccccc3cc1Cn1cc[n+](c1)C2 10

Provide only the value of recorded MIC for [Br-].[Br-].c1cc2nc(c1)C[n+]1cn(c3ccccc31)Cc1cc3ccccc3nc1Oc1ccc3ccccc3c1-c1c(ccc3ccccc13)Oc1nc3ccccc3cc1Cn1c[n+](c3ccccc31)C2 45
